Values compiled from patent US20170305994A1.

Entries annotated with measured IFN-γ, TL1A-costimulated lymphocytes, Fab 0.01 µg/mL
# TARGET_DESC: T1, human DR3 (full length, on cells) (human, UniProt Q93038 25-417)
# T1 sequence: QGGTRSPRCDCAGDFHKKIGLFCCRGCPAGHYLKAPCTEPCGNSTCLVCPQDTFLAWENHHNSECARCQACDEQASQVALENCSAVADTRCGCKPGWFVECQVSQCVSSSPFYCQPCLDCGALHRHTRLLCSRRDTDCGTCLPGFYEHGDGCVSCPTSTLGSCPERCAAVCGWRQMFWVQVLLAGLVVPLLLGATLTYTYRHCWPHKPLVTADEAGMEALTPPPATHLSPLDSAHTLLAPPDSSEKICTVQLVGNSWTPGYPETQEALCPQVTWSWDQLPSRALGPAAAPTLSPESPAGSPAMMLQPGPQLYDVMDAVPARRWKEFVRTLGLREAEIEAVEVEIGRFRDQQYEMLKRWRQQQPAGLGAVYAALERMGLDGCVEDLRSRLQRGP
# EXPERIMENT_NOTES: cell-based or functional assay
QUANTITY: IFN-γ, TL1A-costimulated lymphocytes, Fab 0.01 µg/mL (ng/mL)

BINDER	OBSERVED_RESULT
0171 (humanized IgG1 Fab of 0072 without back mutations) (Fab, V domains shown) VH: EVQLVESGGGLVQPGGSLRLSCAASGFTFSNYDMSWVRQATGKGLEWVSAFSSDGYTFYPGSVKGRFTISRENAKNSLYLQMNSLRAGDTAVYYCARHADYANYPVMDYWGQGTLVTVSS VL: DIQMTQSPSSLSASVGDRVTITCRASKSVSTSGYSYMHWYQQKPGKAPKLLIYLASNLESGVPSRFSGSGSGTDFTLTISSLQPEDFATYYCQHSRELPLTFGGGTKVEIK	105
0170 (humanized IgG1 Fab of 0072; HC T28A S49A Y91; LC Q3A T5A S60A M4) (Fab, V domains shown) VH: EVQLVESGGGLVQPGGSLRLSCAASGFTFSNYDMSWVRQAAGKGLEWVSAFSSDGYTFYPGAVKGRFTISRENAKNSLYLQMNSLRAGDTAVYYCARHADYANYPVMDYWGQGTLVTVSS VL: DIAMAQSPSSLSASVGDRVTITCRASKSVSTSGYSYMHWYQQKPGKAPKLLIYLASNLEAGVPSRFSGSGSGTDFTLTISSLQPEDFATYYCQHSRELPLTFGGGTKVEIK	101
0169 (humanized IgG1 Fab of 0072; HC T28A S49A Y91; LC Q3A T5A S60A M4L) (Fab, V domains shown) VH: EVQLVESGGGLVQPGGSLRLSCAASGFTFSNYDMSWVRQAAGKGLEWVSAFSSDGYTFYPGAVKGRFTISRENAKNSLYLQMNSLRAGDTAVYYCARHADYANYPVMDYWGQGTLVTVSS VL: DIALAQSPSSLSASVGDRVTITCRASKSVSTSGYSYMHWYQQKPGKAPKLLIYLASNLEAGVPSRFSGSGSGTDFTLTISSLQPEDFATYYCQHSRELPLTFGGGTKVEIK	138
0118 (chimeric Fab of 27F16, human IgG1 constant domain) (Fab, V domains shown) VH: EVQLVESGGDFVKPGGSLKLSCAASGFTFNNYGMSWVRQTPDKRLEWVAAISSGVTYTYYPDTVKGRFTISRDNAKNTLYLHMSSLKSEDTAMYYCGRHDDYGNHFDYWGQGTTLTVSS VL: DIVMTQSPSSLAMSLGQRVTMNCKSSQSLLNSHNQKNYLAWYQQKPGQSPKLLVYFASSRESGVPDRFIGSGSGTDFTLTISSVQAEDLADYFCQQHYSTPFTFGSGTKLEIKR	134
0173 (humanized IgG1 Fab of 0072; HC T28A S49A Y91S; LC Q3A T5A S60A M4L) (Fab, V domains shown) VH: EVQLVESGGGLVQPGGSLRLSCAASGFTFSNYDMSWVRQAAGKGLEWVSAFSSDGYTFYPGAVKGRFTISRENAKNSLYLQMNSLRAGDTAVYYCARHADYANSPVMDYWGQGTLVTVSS VL: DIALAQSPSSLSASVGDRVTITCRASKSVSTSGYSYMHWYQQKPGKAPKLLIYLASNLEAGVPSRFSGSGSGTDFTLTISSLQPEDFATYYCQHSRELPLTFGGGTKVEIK	163
